System: HLA-B*44
test.method.notes: MHC binding assay (UV-ligand exchange, β2m ELISA)
Parameters: species or system human
run.parameters: UV-ligand exchange, β2m ELISA
measured.endpoint: Peptide exchange (peptide exchange yield, MHC class I binding score)

These solved cases illustrate the format of a correct answer.
| substance | obs.value |
| --- | --- |
| 371 (GELALKKKI; listed as Homo sapiens) [compound 371] | “++” (>20% = ++) |
| 362 (SEKGVIQVY; listed as Homo sapiens) [compound 362] | “+++” (>50 =+++) |
| 369 (EEIERFFKL; listed as Homo sapiens) [compound 369] | “+++” (>50 =+++) |
| 478 (SEIEQEIGSL; listed as Homo sapiens) [compound 478] | “+++” (>50 =+++) |
| 333 (AETLSTIQI; listed as Homo sapiens) [compound 333] | “+++” (>50 =+++) |

Requested field: Peptide exchange (peptide exchange yield, MHC class I binding score). Item: 356 (EEGRVYLF; listed as Homo sapiens) [compound 356] “+++” (>50 =+++)

Hello, the source for this data is patent US11292821B2, in case you need it.
